- Assay protocol: Half life in Sprague-Dawley rat at 1 mg/kg, po by LC-MS analysis
- Type: ADME, organism-based
- Settings: in vivo
Measured attribute: half-life (h)
Answers are plain numbers, in h.

Tell me the measured half-life of "Cc1nc(NC(=O)c2sc3cc(F)ccc3c2Cl)c(C)c(C)c1O" , please.
3.8

----------
- Subject of test: CYP2D6 (Homo sapiens)
- Sequence (P10635 whole entry): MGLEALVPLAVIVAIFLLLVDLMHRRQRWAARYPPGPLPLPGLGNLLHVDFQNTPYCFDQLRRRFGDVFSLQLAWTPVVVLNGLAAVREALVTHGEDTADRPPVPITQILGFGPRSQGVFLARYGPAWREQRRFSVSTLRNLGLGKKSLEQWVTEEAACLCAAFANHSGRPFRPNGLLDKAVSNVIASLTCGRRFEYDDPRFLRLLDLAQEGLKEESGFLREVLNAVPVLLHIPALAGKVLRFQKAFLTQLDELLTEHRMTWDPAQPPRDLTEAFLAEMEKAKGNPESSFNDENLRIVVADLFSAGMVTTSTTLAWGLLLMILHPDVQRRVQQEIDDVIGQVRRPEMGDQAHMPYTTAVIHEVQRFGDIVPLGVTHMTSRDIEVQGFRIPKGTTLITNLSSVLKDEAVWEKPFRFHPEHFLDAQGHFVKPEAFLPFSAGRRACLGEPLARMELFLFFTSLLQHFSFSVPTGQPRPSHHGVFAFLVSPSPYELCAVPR
- Assay protocol: Inhibition of CYP2D6 in human liver microsomes assessed as remaining activity at 10 uM using dextromethorphan as substrate preincubated for 5 mins followed by NADPH generating system addition for 15 mins by LC-MS/MS method relative to control
- Format: ADME, Microsome
- Settings: probe dextromethorphan, time 20 min, read-out: Activity
Measured attribute: activity at 0.25 h, 10 µM (%)
Answers are plain numbers, in %.

Could you tell me which activity at 0.25 h, 10 µM is on file for "Cc1nc(NC(=O)c2sc3cc(F)ccc3c2Cl)c(C)c(C)c1O" ?
86

----------
- Assay protocol: Half life in Sprague-Dawley rat at 5 mg/kg, po by LC-MS analysis
- Type: ADME, organism-based
- Settings: in vivo
Measured attribute: half-life (h)
Give bare numbers, in h.

Tell me the measured half-life of "Cc1nc(NC(=O)c2sc3cc(F)ccc3c2Cl)c(C)c(C)c1O" , please.
3.3

----------
- Subject of test: Prostaglandin G/H synthase 1 (Homo sapiens, UniProt P23219)
- Sequence (P23219 whole entry): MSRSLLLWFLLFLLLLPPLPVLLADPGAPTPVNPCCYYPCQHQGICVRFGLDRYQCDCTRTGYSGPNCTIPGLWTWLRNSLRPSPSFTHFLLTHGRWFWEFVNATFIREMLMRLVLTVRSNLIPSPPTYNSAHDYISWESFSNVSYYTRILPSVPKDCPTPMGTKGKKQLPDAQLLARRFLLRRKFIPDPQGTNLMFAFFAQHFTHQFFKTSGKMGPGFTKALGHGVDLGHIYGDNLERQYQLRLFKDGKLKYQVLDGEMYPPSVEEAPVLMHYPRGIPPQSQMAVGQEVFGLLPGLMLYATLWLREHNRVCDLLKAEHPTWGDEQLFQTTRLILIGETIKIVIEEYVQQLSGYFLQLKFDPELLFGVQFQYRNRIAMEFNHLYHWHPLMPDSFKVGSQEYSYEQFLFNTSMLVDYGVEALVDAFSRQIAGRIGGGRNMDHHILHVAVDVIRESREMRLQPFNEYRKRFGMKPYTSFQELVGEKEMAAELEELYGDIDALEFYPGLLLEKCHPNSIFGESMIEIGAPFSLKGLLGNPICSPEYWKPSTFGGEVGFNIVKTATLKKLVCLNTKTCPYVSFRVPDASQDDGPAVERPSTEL
Measured attribute: pIC50
Give bare numbers, as −log10 of the molar value.

Given the entry "Cc1nc(NC(=O)c2sc3cc(F)ccc3c2Cl)c(C)c(C)c1O" , report its measured pIC50.
6.10

----------
- Subject of test: UniProtKB P05177
- Sequence (P05177 whole entry): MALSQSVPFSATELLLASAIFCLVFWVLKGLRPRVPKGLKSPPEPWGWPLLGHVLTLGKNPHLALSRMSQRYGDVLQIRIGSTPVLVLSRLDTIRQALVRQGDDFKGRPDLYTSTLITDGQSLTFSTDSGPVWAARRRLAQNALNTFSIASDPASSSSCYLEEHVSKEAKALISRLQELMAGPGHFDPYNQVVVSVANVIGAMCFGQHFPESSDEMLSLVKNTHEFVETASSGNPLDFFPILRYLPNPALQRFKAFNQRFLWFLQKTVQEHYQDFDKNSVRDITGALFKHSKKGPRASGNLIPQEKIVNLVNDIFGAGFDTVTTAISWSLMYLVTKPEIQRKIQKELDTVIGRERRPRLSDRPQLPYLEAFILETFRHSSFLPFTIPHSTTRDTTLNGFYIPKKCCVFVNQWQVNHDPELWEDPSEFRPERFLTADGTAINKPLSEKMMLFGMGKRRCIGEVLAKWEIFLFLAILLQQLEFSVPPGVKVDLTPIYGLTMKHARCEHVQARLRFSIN
- Assay protocol: Inhibition of CYP1A2 in human liver microsomes assessed as remaining activity at 10 uM using phenacetin as substrate preincubated for 5 mins followed by NADPH generating system addition for 15 mins by LC-MS/MS method relative to control
- Format: ADME, Microsome
- Settings: probe phenacetin, time 20 min, read-out: Activity
Measured attribute: activity at 0.25 h, 10 µM (%)
One number for each entry, in %.

What value of activity at 0.25 h, 10 µM has been recorded for this entry: "Cc1nc(NC(=O)c2sc3cc(F)ccc3c2Cl)c(C)c(C)c1O"
89.2

----------
- Assay protocol: Mean residence time in Sprague-Dawley rat at 5 mg/kg, po by LC-MS analysis
- Type: ADME, organism-based
- Settings: in vivo
Measured attribute: MRT (h)
Numbers only, in h.

What does the data say about its MRT? Entry: "Cc1nc(NC(=O)c2sc3cc(F)ccc3c2Cl)c(C)c(C)c1O"
5

----------
- Subject of test: G-protein coupled estrogen receptor 1 (Homo sapiens, UniProt Q99527)
- Sequence (Q99527 whole entry): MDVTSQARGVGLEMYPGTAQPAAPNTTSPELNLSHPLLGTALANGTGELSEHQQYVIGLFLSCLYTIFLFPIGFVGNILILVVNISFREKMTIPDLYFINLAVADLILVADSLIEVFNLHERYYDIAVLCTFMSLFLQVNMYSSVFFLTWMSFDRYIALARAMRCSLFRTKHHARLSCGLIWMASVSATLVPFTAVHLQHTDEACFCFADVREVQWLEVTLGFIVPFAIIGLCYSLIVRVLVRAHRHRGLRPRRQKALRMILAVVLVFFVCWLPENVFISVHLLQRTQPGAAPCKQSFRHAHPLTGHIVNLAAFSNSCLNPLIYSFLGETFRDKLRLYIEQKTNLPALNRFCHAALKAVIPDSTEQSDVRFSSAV
Measured attribute: pKd
Numbers only, as −log10 of the molar value.

// pKd lookup, key: "Cc1nc(NC(=O)c2sc3cc(F)ccc3c2Cl)c(C)c(C)c1O"
7.63

----------
- Assay protocol: Cmax in Sprague-Dawley rat at 1 mg/kg, iv by LC-MS analysis
- Assay type: ADME, organism-based
- Settings: in vivo
Measured attribute: Cmax (ng/mL)
One number for each entry, in ng/mL.

Recorded Cmax of "Cc1nc(NC(=O)c2sc3cc(F)ccc3c2Cl)c(C)c(C)c1O" , please.
1880

----------
- Assay protocol: Cmax in Sprague-Dawley rat at 1 mg/kg, po by LC-MS analysis
- Assay type: ADME, organism-based
- Settings: in vivo
Measured attribute: Cmax (ng/mL)
Give bare numbers, in ng/mL.

Which value of Cmax has been reported for "Cc1nc(NC(=O)c2sc3cc(F)ccc3c2Cl)c(C)c(C)c1O" in the records?
51.9

----------
- Subject of test: G-protein coupled estrogen receptor 1 (Homo sapiens, UniProt Q99527)
- Assay protocol: Inhibition of GPER1 (unknown origin)
Measured attribute: EC50 (nM)
One number for each entry, in nM.

So what does the record say about EC50 for "Cc1nc(NC(=O)c2sc3cc(F)ccc3c2Cl)c(C)c(C)c1O" ?
480

----------
- Assay protocol: Volume of distribution at steady state in Sprague-Dawley rat at 1 mg/kg, iv by LC-MS analysis
- Format: ADME, organism-based
- Settings: in vivo, read-out: Vdss
Measured attribute: Vd (L/kg)
Answers are plain numbers, in L/kg.

For the molecule shown here, "Cc1nc(NC(=O)c2sc3cc(F)ccc3c2Cl)c(C)c(C)c1O" , give the reported Vd.
1.3

----------
- Subject of test: CYP3A4 (Homo sapiens)
- Sequence (P08684 whole entry): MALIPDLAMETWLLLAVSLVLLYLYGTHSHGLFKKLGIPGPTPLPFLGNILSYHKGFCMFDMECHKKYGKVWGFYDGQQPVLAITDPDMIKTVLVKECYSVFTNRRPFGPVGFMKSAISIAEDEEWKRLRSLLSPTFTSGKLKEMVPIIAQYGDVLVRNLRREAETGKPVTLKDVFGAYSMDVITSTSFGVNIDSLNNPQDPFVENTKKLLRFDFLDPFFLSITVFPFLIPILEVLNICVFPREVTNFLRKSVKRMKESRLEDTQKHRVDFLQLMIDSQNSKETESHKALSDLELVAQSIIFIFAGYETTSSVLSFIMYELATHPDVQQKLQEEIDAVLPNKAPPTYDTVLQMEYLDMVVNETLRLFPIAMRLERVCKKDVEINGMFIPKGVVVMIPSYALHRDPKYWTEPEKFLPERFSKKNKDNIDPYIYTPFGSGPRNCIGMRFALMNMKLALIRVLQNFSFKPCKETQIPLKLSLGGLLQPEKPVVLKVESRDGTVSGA
- Assay protocol: Inhibition of CYP3A4 in human liver microsomes assessed as remaining activity at 10 uM using midazolam as substrate preincubated for 5 mins followed by NADPH generating system addition for 15 mins by LC-MS/MS method relative to control
- Assay type: ADME, Microsome
- Settings: probe midazolam, time 20 min, read-out: Activity
Measured attribute: activity at 0.25 h, 10 µM
# do not omit the unit; it follows the number

For "Cc1nc(NC(=O)c2sc3cc(F)ccc3c2Cl)c(C)c(C)c1O" , what is its reported activity at 0.25 h, 10 µM?
89.9%

----------
- Subject of test: CYP2C19 (Homo sapiens, UniProt P33261)
- Sequence (P33261 whole entry): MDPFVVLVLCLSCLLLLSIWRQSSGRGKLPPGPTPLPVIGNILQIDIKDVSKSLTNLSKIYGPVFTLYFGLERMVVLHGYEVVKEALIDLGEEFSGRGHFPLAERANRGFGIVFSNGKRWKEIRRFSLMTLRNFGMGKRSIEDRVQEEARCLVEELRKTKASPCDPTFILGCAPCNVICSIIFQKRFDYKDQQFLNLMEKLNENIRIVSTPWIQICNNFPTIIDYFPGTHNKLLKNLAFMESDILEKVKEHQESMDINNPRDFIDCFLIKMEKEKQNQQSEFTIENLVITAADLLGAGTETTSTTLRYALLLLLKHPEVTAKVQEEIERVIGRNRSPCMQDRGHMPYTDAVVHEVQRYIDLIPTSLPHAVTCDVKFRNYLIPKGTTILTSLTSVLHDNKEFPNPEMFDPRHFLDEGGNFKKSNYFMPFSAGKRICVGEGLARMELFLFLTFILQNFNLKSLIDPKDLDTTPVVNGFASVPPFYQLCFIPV
- Assay protocol: Inhibition of CYP2C19 in human liver microsomes assessed as remaining activity at 10 uM using 5-mephenytoin as substrate preincubated for 5 mins followed by NADPH generating system addition for 15 mins by LC-MS/MS method relative to control
- Format: ADME, Microsome
- Settings: probe 5-mephenytoin, time 20 min, read-out: Activity
Measured attribute: activity at 0.25 h, 10 µM (%)
One number for each entry, in %.

Query: activity at 0.25 h, 10 µM; subject: "Cc1nc(NC(=O)c2sc3cc(F)ccc3c2Cl)c(C)c(C)c1O"
98.3

----------
- Assay protocol: Mean residence time in Sprague-Dawley rat at 1 mg/kg, iv by LC-MS analysis
- Assay type: ADME, organism-based
- Settings: in vivo
Measured attribute: MRT (h)
Answers are plain numbers, in h.

Recorded MRT for "Cc1nc(NC(=O)c2sc3cc(F)ccc3c2Cl)c(C)c(C)c1O" , please?
1.2
